Tested on: ACHN renal
Experiment: NCI-60 one-dose screen, 48 h (100 = growth as untreated, 0 = no growth, -100 = all killed)
Conditions: 10 µM unless noted
Compounds without any hit were thinned out: in the full panel of roughly 83,000, 20% have a hit.
Listed compounds paired with reported growth
Response body: numeric value in %, unit text excluded.

Here are 5 compounds together with their reported answers.
| Compound | Result Unit | Measured Number |
| --- | --- | --- |
| CCOc1cc(CNc2ccc(N3CCOCC3)c(C(=O)O)c2)ccc1OC | % | 108 |
| O=C(CN1CCOCC1)Nc1ccc2ncnc(Nc3ccc(OCc4cccc(F)c4)c(Cl)c3)c2c1 | % | 24.5 |
| COc1cc2nnn3c4ncccc4c(N=O)c3c2cc1OC | % | -2.46 |
| O=S(=O)(c1cccc(NC2=Nc3cccc4cccc2c34)c1)N1CCCC1 | % | 66.9 |
| COc1cc(NCC(O)CN(CC(C)C)C2CCCC2)c2ncccc2c1 (configuration not stated) | % | 80.2 |

For the compound shown here, CC(=O)Nc1ccc(S(=O)(=O)NC2CCCCC2)cc1 , give the reported growth. 91.7

For the compound shown here, COC(=O)Nc1nc2ccc(C(=O)c3cccc(I)c3)cc2[nH]1 , give the reported growth. 17.5

For the compound shown here, COc1cccc(NC(=O)c2cccc(-c3cc(=O)c4c(OC)c(OC)c(OC)cc4o3)c2)c1 , give the reported growth. 62.5

====

System: HOP-62 NSCLC
Assay: NCI-60 one-dose screen, 48 h (100 = growth as untreated, 0 = no growth, -100 = all killed)
Details: 10 µM unless noted
About 83,000 compounds went through this panel and 20% of them were active in at least one assay; those are over-represented in the sample as a whole.
Where growth equals or exceeds 50%, the correct label is 1; where it does not, the label is 0.

Solved cases below.
| Compound | Assigned Class |
| --- | --- |
| BrC(Br)(Br)c1cnc2ccccc2n1 | 1 |
| COc1cc(NCC(O)CN(CC(C)C)CC(C)C)c2nc(C)ccc2c1 (stereo not drawn) | 1 |
| O=C1NC(=S)NC(=O)C1=Cc1cn(Cc2ccccn2)c2ccccc12 | 1 |
| Cc1[nH]c(C(=O)Nc2ccccc2OCc2cccc(C(=O)NCCN)c2)c(Cl)c1Cl | 1 |
| Cc1ccc(S(=O)(=O)Nc2ccc(Cl)cc2)cc1 | 1 |

Check the entry C=C1C(=O)O[C@H]2[C@H]1CC/C(COC(=O)/C=C/c1c[nH]c3ccccc13)=C\CC[C@@]1(C)O[C@@H]21 : does growth equal or exceed 50%? 0

Check the entry Nc1c(Cl)cc([N+](=O)[O-])cc1Br : does growth equal or exceed 50%? 1

Check the entry NC(=S)N/N=C/c1ccc(OC(=O)COc2cc(Cl)c(Cl)cc2Cl)cn1 : does growth equal or exceed 50%? 1

Check the entry COc1cc(C2CC(c3cccc(Nc4ccncc4)c3)=NN2C(C)=O)cc(OC)c1OC (stereo not drawn) : does growth equal or exceed 50%? 1

Check the entry Cc1cccc(C)c1-c1cc(Cc2ccc(Cl)cc2)c(=O)[nH]n1 : does growth equal or exceed 50%? 1

====

Tested on: NCI-H226 lung
Assay: NCI-60 one-dose screen, 48 h (100 = growth as untreated, 0 = no growth, -100 = all killed)
Settings: 10 µM unless noted
About 83,000 compounds went through this panel and 20% of them were active in at least one assay; those are over-represented in the sample as a whole.
Property Measured: growth (%)
Response body: numeric value in %, unit text excluded.

| Compound | Property Measured | Measured Number |
| --- | --- | --- |
| N#Cc1ccc(-c2ccc3c(c2)NC(=O)/C3=C\c2ccc[nH]2)cc1 | growth | 58.1 |
| O=c1[nH]nc(-c2ccc(Br)cc2)cc1Cc1ccc(O)cc1 | growth | 85.6 |
| CC(C)(C)OC(=O)N1CCN(c2ccc(N)cc2)C(=O)C1 | growth | 100 |
| O=C(CCN1CCCC1)Nc1ccc2c(NCc3ccc(F)cc3)c3ccccc3nc2c1 | growth | 4 |
| O=C1Nc2ccccc2/C1=N/c1nc(-c2ccc(Cl)cc2)cs1 | growth | 64.2 |

For the compound shown here, COc1ccccc1/C=N/NC1=NC2C(N1)N(C)C(=O)N2C (stereo not given) , give the reported growth. 90.4

For the compound shown here, C1=C2CNCC3=Cc4ccc5ccccc5c4OC23Oc2c1ccc1ccccc21 , give the reported growth. 67.7

For the compound shown here, c1ccc(CCSc2ncnc3nc[nH]c23)cc1 , give the reported growth. 86.6

For the compound shown here, C=C(C)[C@@H]1CC[C@]2(CO)CC[C@]3(C)[C@H](CC[C@@H]4[C@@]5(C)CCCNC(C)(C)[C@@H]5CC[C@]43C)[C@@H]12 , give the reported growth. 84.4

For the compound shown here, Cc1ccc(C2CC(c3cccc(Nc4ccncc4)c3)=NN2c2cc(Cl)cc(Cl)c2)cc1 (stereo not given) , give the reported growth. 86.3

====

Tested on: OVCAR-3 ovarian
Assay: NCI-60 one-dose screen, 48 h (100 = growth as untreated, 0 = no growth, -100 = all killed)
Conditions: 10 µM unless noted
About 83,000 compounds went through this panel and 20% of them were active in at least one assay; those are over-represented in the sample as a whole.
Listed molecules paired with reported growth
Response body: numeric value in %, unit text excluded.

| Molecule | System Under Test | growth / % |
| --- | --- | --- |
| C1=C2CNCC3=Cc4ccc5ccccc5c4OC23Oc2c1ccc1ccccc21 | OVCAR-3 ovarian | -19.1 |

For the molecule shown here, NNC(=O)/C(=C\c1ccc([N+](=O)[O-])cc1)CC(=O)c1ccc(Cl)c(Cl)c1 , give the reported growth. 97.2

For the molecule shown here, COc1ccc(C(O)c2cc3c(N)c(C(=O)Nc4ccc(Br)cc4)sc3nc2C)cc1 (stereo not given) , give the reported growth. -34.9

For the molecule shown here, COc1cccc(/C=C2\COc3ccc(-c4ccccc4)cc3C2=O)c1 , give the reported growth. -44

====

System: MDA-MB-435 melanoma
Experiment: NCI-60 one-dose screen, 48 h (100 = growth as untreated, 0 = no growth, -100 = all killed)
Conditions: 10 µM unless noted
Experimental: Growth inhibition of the MDA-MB-435 human Melanoma tumor cell line is measured as a screen for anti-cancer activity. Cells are grown in 96 well plates and exposed to the test compound for 48 hours. Compounds are tested at a single concentration, which is 10^-5 M for most compounds. The reported endpoint is percent growth (GI% or GIPRCNT), where numbers from 0 - 100% represent growth inhibition, and numbers from -100% - 0 represent cell death. […]
Compounds without any hit were thinned out: in the full panel of roughly 83,000, 20% have a hit.
Property Measured: growth (%)
Response body: numeric value in %, unit text excluded.

Here are 5 molecules together with their reported answers.
| Molecule | System Under Test | growth (%) |
| --- | --- | --- |
| CCCOc1nc(SCCC)nc2c1cnn2-c1ccccc1 | MDA-MB-435 melanoma | 104 |
| CCCCCCCCCCCCC1CCC/C=C\CCC(=O)O1 (stereo unspecified) | MDA-MB-435 melanoma | 104 |
| c1ccc(-c2nnc(Nc3ccc4c(c3)OCCO4)o2)c(NCc2ccncc2)c1 | MDA-MB-435 melanoma | -34.6 |
| CN1CCN(c2cc(F)c(NC3=C(Cl)C(=O)c4ncccc4C3=O)c(F)c2)CC1 | MDA-MB-435 melanoma | -75.8 |
| COc1ccc(-c2c(-c3ccccc3)noc2N)cc1OC | MDA-MB-435 melanoma | 91 |

As a next step, examine the molecule that follows.
For the molecule shown here, COc1ccc(C(=O)/C=C/c2cn(Cc3ccc(Cl)cc3)c3ccccc23)cc1 , give the reported growth. -20.5

====

Listed compounds paired with reported growth
System: M14 melanoma
Test: NCI-60 one-dose screen, 48 h (100 = growth as untreated, 0 = no growth, -100 = all killed)
Conditions: 10 µM unless noted
This is part of a sample that, as a whole, favours compounds with a hit. Of some 83,000 tested, about 20% had one in any assay.
Response body: numeric value in %, unit text excluded.

Here are 2 compounds together with their reported answers.
| Compound | growth [%] |
| --- | --- |
| O=C1c2ccccc2C(=O)c2c(NCCN=Cc3ccccc3O)cccc21 | 35.6 |
| COc1ccccc1C(C[N+](=O)[O-])c1c(-c2ccccc2)[nH]c2cc(C)ccc12 (stereo not given) | 45.6 |

For the compound shown here, Cc1ccc(C2CC(c3cccc(Nc4ccncc4)c3)=NN2c2cc(Cl)cc(Cl)c2)cc1 (stereo not given) , give the reported growth. 2.02

For the compound shown here, COc1ccc(-c2nc(N/N=C/c3cccc(Br)c3)nc(N3CCOCC3)c2C#N)cc1 , give the reported growth. 24.8

For the compound shown here, C=Cc1cc[n+](CCCCCCCCCCCC)cc1 , give the reported growth. 102

For the compound shown here, COc1cc(C2CC(c3cccc(Nc4ccncc4)c3)=NN2c2cc(Cl)cc(Cl)c2)cc(OC)c1OC (stereo not given) , give the reported growth. 96.2

For the compound shown here, Nc1c(Cl)cc([N+](=O)[O-])cc1Br , give the reported growth. 114

For the compound shown here, COc1ccc(C2CC(c3cccc(Nc4ccncc4)c3)=NN2c2ccc(Cl)cc2)cc1 (stereo not given) , give the reported growth. 100
